Origin of values: paper PMC4763008

Molecular target: CYP3A4 (Homo sapiens)
Construct: each reaction was performed with 0.5 mg/mL pooled human liver microsomes; tissue Corning Gentest BD UltraPool HLM 150; host or cells: pooled human liver microsomes
Sequence (P08684 whole entry): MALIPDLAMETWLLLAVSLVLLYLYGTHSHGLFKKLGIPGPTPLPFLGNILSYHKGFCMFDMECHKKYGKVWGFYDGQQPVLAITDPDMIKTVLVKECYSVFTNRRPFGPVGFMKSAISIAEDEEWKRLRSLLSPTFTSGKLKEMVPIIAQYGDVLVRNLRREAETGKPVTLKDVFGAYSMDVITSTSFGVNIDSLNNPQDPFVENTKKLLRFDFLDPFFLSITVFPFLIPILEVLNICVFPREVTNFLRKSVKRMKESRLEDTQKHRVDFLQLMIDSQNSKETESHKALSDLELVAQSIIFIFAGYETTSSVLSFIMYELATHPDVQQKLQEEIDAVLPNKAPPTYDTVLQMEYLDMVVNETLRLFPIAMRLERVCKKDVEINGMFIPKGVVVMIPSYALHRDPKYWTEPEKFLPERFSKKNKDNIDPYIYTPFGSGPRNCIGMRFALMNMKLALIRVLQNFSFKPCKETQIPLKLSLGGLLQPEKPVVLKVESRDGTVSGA
Test: CYP inhibition, cocktail of probe substrates in pooled human liver microsomes: midazolam 1'-hydroxylation
Format: in vitro ADME
Conditions: pooled HLMs, substrate 2.5 μM, 15 min preincubation with NADPH, read-out: IC50 With preincubation with NADPH
Property Name: IC50

Prompt: Entry under review: O=c1ccc2c(ccc3ccoc32)o1 [Bakuchicin] . Reported IC50?
Completion: > 100 µM

* * *

Target: CYP2D6 (Homo sapiens)
Construct: each reaction was performed with 0.5 mg/mL pooled human liver microsomes; tissue Corning Gentest BD UltraPool HLM 150; host or cells: pooled human liver microsomes
Sequence (P10635 whole entry): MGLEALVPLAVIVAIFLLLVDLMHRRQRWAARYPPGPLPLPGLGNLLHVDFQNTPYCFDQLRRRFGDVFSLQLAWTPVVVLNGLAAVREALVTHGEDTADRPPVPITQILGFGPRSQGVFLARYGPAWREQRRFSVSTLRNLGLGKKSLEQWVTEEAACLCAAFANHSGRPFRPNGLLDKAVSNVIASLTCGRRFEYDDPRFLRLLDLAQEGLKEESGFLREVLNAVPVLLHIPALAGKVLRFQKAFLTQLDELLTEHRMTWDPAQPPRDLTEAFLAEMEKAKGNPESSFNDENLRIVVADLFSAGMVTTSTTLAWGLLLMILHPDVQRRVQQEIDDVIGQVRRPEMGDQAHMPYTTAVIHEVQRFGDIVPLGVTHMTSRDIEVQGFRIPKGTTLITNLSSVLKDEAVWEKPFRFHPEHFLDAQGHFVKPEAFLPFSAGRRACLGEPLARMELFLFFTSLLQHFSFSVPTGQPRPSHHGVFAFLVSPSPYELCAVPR
Test: CYP inhibition, cocktail of probe substrates in pooled human liver microsomes: dextromethorphan O-demethylation
Assay type: in vitro ADME
Conditions: pooled HLMs, dextromethorphan O-deethylation, substrate 5 μM, 15 min preincubation with NADPH; read-out: IC50 With preincubation with NADPH
Property Name: pIC50
Scale: negative log10 of molar concentration, which is what pIC50 denotes.

Prompt: Entry under review: O=c1ccc2c(ccc3ccoc32)o1 [Bakuchicin] . Reported pIC50?
Completion: 4.82

* * *

Biological target: CYP1A2 (Homo sapiens, UniProt P05177)
Construct: tissue Corning Gentest BD UltraPool HLM 150; host or cells: pooled human liver microsomes
Sequence (P05177 1-516): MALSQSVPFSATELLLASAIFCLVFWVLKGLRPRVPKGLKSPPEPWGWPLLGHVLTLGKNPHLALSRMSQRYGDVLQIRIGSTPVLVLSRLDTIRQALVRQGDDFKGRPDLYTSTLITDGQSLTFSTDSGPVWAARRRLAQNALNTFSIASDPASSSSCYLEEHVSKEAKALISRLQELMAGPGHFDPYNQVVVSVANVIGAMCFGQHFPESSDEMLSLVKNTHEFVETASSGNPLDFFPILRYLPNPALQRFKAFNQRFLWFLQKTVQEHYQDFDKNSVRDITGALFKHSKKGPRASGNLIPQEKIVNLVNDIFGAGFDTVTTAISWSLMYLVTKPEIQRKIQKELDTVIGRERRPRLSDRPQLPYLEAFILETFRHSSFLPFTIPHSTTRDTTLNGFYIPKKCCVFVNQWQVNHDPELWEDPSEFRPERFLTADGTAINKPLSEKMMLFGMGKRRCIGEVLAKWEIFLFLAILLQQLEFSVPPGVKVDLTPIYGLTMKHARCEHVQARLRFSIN
Test: CYP inhibition, cocktail of probe substrates in pooled human liver microsomes: phenacetin O-deethylation
Assay type: in vitro ADME
Details: pooled HLMs, substrate 80 μM, without preincubation, read-out: IC50 Without preincubation
Property Name: pIC50
Scale: negative log10 of molar concentration, which is what pIC50 denotes.

Prompt: Entry under review: O=c1ccc2c(ccc3ccoc32)o1 [Bakuchicin] . Reported pIC50?
Completion: 6.37

* * *

Target: human recombinant cDNA-expressed CYP1A2 (Homo sapiens, UniProt P05177)
Construct: purchased Corning Gentest (Woburn, MA)
Assay: Inhibition of phenacetin O-deethylation by human recombinant cDNA-expressed CYP1A2
Format: biochemical
Conditions: recombinant CYP1A2, phenacetin 20, 40, 80 μM, 60 min; read-out: Ki on CYP1A2 (secondary plot)
Property Name: pKi
Scale: negative log10 of molar concentration, which is what pKi denotes.

Prompt: Entry under review: O=c1ccc2c(ccc3ccoc32)o1 . Reported pKi?
Completion: 6.49
